Measured inhibition at 20 min, 20 µM, listed per entry for reference.
tgt: ABCB1 (Homo sapiens, UniProt P08183)
Construct: expressed in transfected cells; host or cells: L5178Y mouse T-cell lymphoma cells transfected with pHa MDR1/A retrovirus, selected with colchicine (L5178YMDR)
method description: ABCB1 inhibition assay (rhodamine 123 accumulation, flow cytometry)
Format: cell-based
measurement context: human, probe rhodamine 123 (5.2 µM); 20 µM, L5178YMDR, rhodamine 123 accumulation, n = 1

| compound | inhibition at 20 min, 20 µM |
| --- | --- |
| CC(=O)N[C@H]1CC[C@@]2(F)C3=CC(=O)[C@@H]4C[C@H]5OC(C)(C)O[C@H]5C[C@]4(C)[C@H]3CC[C@]12C | -0.12% |
| CC(=O)[C@H]1CC[C@@]2(O)C3=CC(=O)[C@@H]4C[C@H]5OC(C)(C)O[C@H]5C[C@]4(C)[C@H]3CC[C@]12C [Compound 9, poststerone 2,3-acetonide] | -0.42% |
| CC(=O)[C@H]1CC[C@@]2(O)C3=CC(=O)[C@@H]4C[C@H]5OC(C)(C)O[C@H]5C[C@]4(C)C3=CC[C@]12C | -0.41% |
